I'd appreciate it if you could supply Anti-CD28 Fab signal (phage binding ELISA) values for the items below.
biological target: Anti-CD28 Fab (SEQ ID NOs: 696, 697); assay: phage ELISA, clonal phage supernatant on biotinylated anti-CD28 Fab captured on neutravidin plates
Sequence (VH, as listed by the source, chain 1 of 2): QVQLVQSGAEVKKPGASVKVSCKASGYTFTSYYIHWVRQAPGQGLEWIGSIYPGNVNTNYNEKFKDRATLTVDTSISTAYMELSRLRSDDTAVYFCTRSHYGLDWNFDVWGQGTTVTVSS
Sequence (VL, as listed by the source, chain 2 of 2): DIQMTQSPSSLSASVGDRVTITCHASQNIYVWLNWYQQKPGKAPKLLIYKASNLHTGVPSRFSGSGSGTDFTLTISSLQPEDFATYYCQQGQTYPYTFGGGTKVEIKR
Answers are plain numbers.

>  <binder>
YCAGHMPIYMTKCL (Peptide-87 library clone, tested as clonal phage (peptide fused to pIII of the bacteriophage)) [Phage-1117]

>  <measured_result>
1.3

$$$$
>  <binder>
YCEGHSTEYMAKCL (Peptide-87 library clone, tested as clonal phage (peptide fused to pIII of the bacteriophage)) [Phage-1126]

>  <measured_result>
1.27

$$$$

Quick batch: Anti-CD28 Fab signal (phage binding ELISA) for everything below.
1. YCMGHLPIYMEKCL (Peptide-87 library clone, tested as clonal phage (peptide fused to pIII of the bacteriophage)) [Phage-1120]
2. YCDGHAEEYRMKCL (Peptide-87 library clone, tested as clonal phage (peptide fused to pIII of the bacteriophage)) [Phage-1128]
3. YCEGHQPAYMEKCL (Peptide-87 library clone, tested as clonal phage (peptide fused to pIII of the bacteriophage)) [Phage-1127]
4. YCDGHSPAYLQKCL (Peptide-87 library clone, tested as clonal phage (peptide fused to pIII of the bacteriophage)) [Phage-1123]
5. YCQGHSVEHMAKCL (Peptide-87 library clone, tested as clonal phage (peptide fused to pIII of the bacteriophage)) [Phage-1116]
6. YCEGHLPRYMLKCL (Peptide-87 library clone, tested as clonal phage (peptide fused to pIII of the bacteriophage)) [Phage-1121]
7. YCEGHFPLYMNKCL (Peptide-87 library clone, tested as clonal phage (peptide fused to pIII of the bacteriophage)) [Phage-1125]

[1.28, 1.27, 1.27, 1.28, 1.3, 1.28, 1.27]
